Biological target: PCSK9 (Homo sapiens, UniProt Q8NBP7)
Sequence (Q8NBP7 153-692): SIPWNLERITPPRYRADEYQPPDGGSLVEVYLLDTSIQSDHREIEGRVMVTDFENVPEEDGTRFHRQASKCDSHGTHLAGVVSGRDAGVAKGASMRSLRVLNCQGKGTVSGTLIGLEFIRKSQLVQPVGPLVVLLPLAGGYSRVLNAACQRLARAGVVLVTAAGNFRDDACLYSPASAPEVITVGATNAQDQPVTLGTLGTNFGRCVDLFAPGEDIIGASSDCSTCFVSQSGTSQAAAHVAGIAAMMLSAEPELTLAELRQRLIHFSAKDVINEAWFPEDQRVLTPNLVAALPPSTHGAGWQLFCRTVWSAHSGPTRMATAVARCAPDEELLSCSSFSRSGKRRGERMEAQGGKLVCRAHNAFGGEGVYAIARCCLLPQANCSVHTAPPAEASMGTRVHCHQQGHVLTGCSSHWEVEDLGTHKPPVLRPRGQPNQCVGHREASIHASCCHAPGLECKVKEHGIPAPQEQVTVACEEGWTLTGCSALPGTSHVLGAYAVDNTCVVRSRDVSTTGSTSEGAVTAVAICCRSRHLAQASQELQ
Sequence (Q8NBP7 31-152 partner limits assumed): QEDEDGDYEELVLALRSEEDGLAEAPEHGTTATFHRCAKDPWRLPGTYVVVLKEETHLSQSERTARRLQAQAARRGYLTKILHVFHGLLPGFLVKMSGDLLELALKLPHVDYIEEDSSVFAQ
Assay: PCSK9-LDLR in vitro Binding Assay (solid phase, ELISA readout)
Conditions: test compound concentration 10 μM
property.label: inhibition at 10 µM (%)

{"columns": ["smiles.data", "inhibition at 10 µM, %"],
 "data": [
  ["O=C(COc1ccc(C(Cc2ccccc2)=NOCc2ccc(C(F)(F)F)cc2)cc1)NN1CCOCC1", 53]
]}

P = O=C(COc1ccc2c(c1)CCCC2=NOCc1ccc(C(F)(F)F)cc1)NN1CCCCC1
Q = O=C(COc1ccc(C(Cc2ccccc2)=NOCc2ccc(OC(F)(F)F)cc2)cc1)N1CCOCC1
Please state the entry with greater inhibition at 10 µM among P and Q . To answer, give the label that identifies your chosen option.
P
(P: 50%, Q: 26%)

----------
Biological target: PCSK9 (Homo sapiens)
Test: PCSK9-LDLR in vitro Binding Assay (solid phase, ELISA readout)
Conditions: test compound concentration 10 μM
property.label: inhibition at 10 µM (%)

Completed entries (count: 2):
{"columns": ["smiles.data", "assayed.system", "inhibition at 10 µM (%)"],
 "data": [
  ["CC(=NOCc1ccc(C(F)(F)F)cc1)c1ccc(OCC(=O)N2CCOCC2)cc1", "PCSK9 (Homo sapiens)", 26],
  ["Cc1ccc(CON=C(Cc2ccccc2)c2ccc(OCC(=O)N3CCOCC3)c(C)c2)cc1", "PCSK9 (Homo sapiens)", 32]
]}

P = CCC(=NOCc1ccc(C(F)(F)F)cc1)c1ccc(OCC(=O)Nc2cc(C)nn2C)cc1
Q = O=C(COc1ccc2c(c1)CCCC2=NOCc1ccc(C(F)(F)F)cc1)NN1CCOCC1
Please state the entry with greater inhibition at 10 µM among P and Q . To answer, give the label that identifies your chosen option.
Q

----------
Target: PCSK9 (Homo sapiens, UniProt Q8NBP7)
Test: PCSK9-LDLR in vitro Binding Assay (solid phase, ELISA readout)
Details: test compound concentration 10 μM
property.label: inhibition at 10 µM (%)

Completed entries (count: 6):
{"columns": ["smiles.data", "unit.symbol", "inhibition at 10 µM"],
 "data": [
  ["CCC(=NOCc1ccc(C(F)(F)F)cc1)c1ccc(OCC(=O)N(CCO)c2ccccc2)cc1", "%", 20],
  ["O=C(COc1ccc2c(c1)CCCC2=NOCc1ccc(C(F)(F)F)cc1)Nc1nc2cc(Cl)ccc2o1", "%", 49],
  ["Cc1cc(C(Cc2ccsc2)=NOCc2ccc(C(F)(F)F)cc2)ccc1OCC(=O)N1CCOCC1", "%", 21],
  ["CN1CCN(C(=O)COc2ccc3c(c2)CCCC3=NOCc2ccc(C(F)(F)F)cc2)CC1", "%", 63],
  ["CCC(=NOCCn1ccc2ccccc21)c1ccc(OCC(=O)N2CCN(C)CC2)cc1", "%", 27],
  ["CCC(=NOCc1nc(-c2ccccc2)oc1C)c1ccc(OCC(=O)N2CCN(C)CC2)cc1", "%", 22]
]}

I = O=C(COc1ccc(C(Cc2ccccc2)=NOCc2ccccc2)cc1)N1CCOCC1
II = [C-]#[N+]c1ccccc1NC(=O)COc1ccc2c(c1)CCCC2=NOCc1ccc(C(F)(F)F)cc1
Please state the entry with greater inhibition at 10 µM among I and II . To answer, give the label that identifies your chosen option.
II
(II: 48%, I: 27%)

----------
Target: PCSK9 (Homo sapiens)
Experiment: PCSK9-LDLR in vitro Binding Assay (solid phase, ELISA readout)
Details: test compound concentration 100 μM
property.label: inhibition at 100 µM (%)

{"columns": ["smiles.data", "value.measured"],
 "data": [
  ["O=C(COc1ccc(C(Cc2ccccc2)=NOCc2ccc(C(F)(F)F)cc2)cc1)N1CCOCC1", 62]
]}

a = COc1ccc(CON=C(Cc2ccccc2)c2ccc(OCC(=O)N3CCCCC3)c(C)c2)cc1
b = CC(C)(C)OC(=O)N1CCC(ONC(=O)COc2ccc3c(c2)CCCC3=NOCc2ccc(C(F)(F)F)cc2)CC1
Identify the item whose inhibition at 100 µM is the smaller number: a or b To answer, give the label that identifies your chosen option.
a
(a: 50%, b: 73%)

----------
Target: PCSK9 (Homo sapiens, UniProt Q8NBP7)
Assay: PCSK9-LDLR in vitro Binding Assay (solid phase, ELISA readout)
Conditions: test compound concentration 100 μM
property.label: inhibition at 100 µM (%)

{"columns": ["compound", "property.label", "unit.symbol", "value.measured"],
 "data": [
  ["Cc1ccc(CON=C(Cc2ccccc2)c2ccc(OCC(=O)N3CCOCC3)c(C)c2)cc1 [Example 26]", "inhibition at 100 µM", "%", 44],
  ["Cc1cc(C(Cc2ccsc2)=NOCc2ccc(C(F)(F)F)cc2)ccc1OCC(=O)N1CCOCC1 [Example 10]", "inhibition at 100 µM", "%", 53],
  ["Cc1cc(C(Cc2ccccc2)=NOCc2ccc(C(F)(F)F)cc2)ccc1OCC(=O)N1CCOCC1 [Example 1]", "inhibition at 100 µM", "%", 51]
]}

----------
Molecular target: PCSK9 (Homo sapiens, UniProt Q8NBP7)
Experiment: PCSK9-LDLR in vitro Binding Assay (solid phase, ELISA readout)
Settings: test compound concentration 10 μM
Procedure: The PCSK9-LDLR in vitro Binding Assay is a quantitative solid phase binding assay between PCSK9 and recombinant LDLR. Plates were pre-coated with a recombinant LDLR-AB domain, which binds PCSK9. Test compound at different concentration was added to the PCSK9 and added to LDLR immobilized on the wells. The amount of bound PCSK9 is measured by binding it with biotinylated anti-His-tag monoclonal antibody, followed by binding with horseradish peroxidase conjugated streptavidin substrate. […]
property.label: inhibition at 10 µM (%)

Completed entries (count: 6):
{"columns": ["compound", "assayed.system", "property.label", "unit.symbol", "value.measured"],
 "data": [
  ["Cc1ccnc(NC(=O)COc2ccc3c(c2)CCCC3=NOCc2ccc(C(F)(F)F)cc2)n1 [Example 60]", "PCSK9 (Homo sapiens, UniProt Q8NBP7)", "inhibition at 10 µM", "%", 61],
  ["Cc1cc(C(Cc2ccccc2)=NOCc2ccc(OC(F)(F)F)cc2)ccc1OCC(=O)N1CCOCC1 [Example 34]", "PCSK9 (Homo sapiens, UniProt Q8NBP7)", "inhibition at 10 µM", "%", 25],
  ["COc1ccc(CON=C(Cc2ccccc2)c2ccc(OCC(=O)N3CCCCC3)c(C)c2)cc1 [Example 40]", "PCSK9 (Homo sapiens, UniProt Q8NBP7)", "inhibition at 10 µM", "%", 24],
  ["CC(C)(C)OC(=O)N1CCC(ONC(=O)COc2ccc3c(c2)CCCC3=NOCc2ccc(C(F)(F)F)cc2)CC1 [Example 62]", "PCSK9 (Homo sapiens, UniProt Q8NBP7)", "inhibition at 10 µM", "%", 57],
  ["O=C(COc1ccc(C(Cc2ccccc2)=NOCc2ccc(C(F)(F)F)cc2)cc1)N1CCOCC1 [Example 4]", "PCSK9 (Homo sapiens, UniProt Q8NBP7)", "inhibition at 10 µM", "%", 31],
  ["CN1CCN(C(=O)COc2ccc(C(Cc3ccccc3)=NOCc3ccc(C(F)(F)F)cc3)cc2)CC1 [Example 6]", "PCSK9 (Homo sapiens, UniProt Q8NBP7)", "inhibition at 10 µM", "%", 49]
]}

a = COc1ccc(CON=C(Cc2ccccc2)c2ccc(OCC(=O)N3CCOCC3)c(C)c2)cc1 [Example 36]
b = Cc1cc(C(Cc2ccccc2)=NOCc2ccc(C(F)(F)F)cc2)ccc1OCC(=O)N1CCOCC1 [Example 1]
Identify the item whose inhibition at 10 µM is the smaller number: a or b To answer, give the label that identifies your chosen option.
a

----------
Biological target: PCSK9 (Homo sapiens, UniProt Q8NBP7)
Assay: PCSK9-LDLR in vitro Binding Assay (solid phase, ELISA readout)
Conditions: test compound concentration 100 μM
property.label: inhibition at 100 µM (%)

Completed entries (count: 10):
{"columns": ["compound", "unit.symbol", "inhibition at 100 µM"],
 "data": [
  ["CCC(=NOCc1ccc(C(F)(F)F)cc1)c1ccc(OCC(=O)N2CCOCC2)cc1 [Example 13]", "%", 54],
  ["COc1ccc(CON=C(Cc2ccccc2)c2ccc(OCC(=O)N3CCOCC3)c(C)c2)cc1 [Example 36]", "%", 40],
  ["Cc1cc(C(Cc2ccccc2)=NOCc2ccc(OC(F)(F)F)cc2)ccc1OCC(=O)N1CCOCC1 [Example 34]", "%", 46],
  ["CCC(=NOCc1ccc(C(F)(F)F)cc1)c1ccc(OCC(=O)Nc2cc(C)nn2C)cc1 [Example 22]", "%", 60],
  ["O=C(COc1ccc(C(Cc2ccccc2)=NOCc2ccccc2)cc1)N1CCOCC1 [Example 25]", "%", 40],
  ["O=C(COc1ccc(C(Cc2ccccc2)=NOCc2ccc(C(F)(F)F)cc2)cc1)NN1CCOCC1 [Example 9]", "%", 33],
  ["Cc1cc(C(Cc2ccccc2)=NOCc2ccc(C(F)(F)F)cc2)ccc1OCC(=O)NCC(=O)N1CCOCC1 [Example 3]", "%", 38],
  ["O=C(COc1ccc(C(Cc2ccccc2)=NOCc2ccc(OC(F)(F)F)cc2)cc1)N1CCOCC1 [Example 35]", "%", 42],
  ["CCC(=NOCc1ccc(C(F)(F)F)cc1)c1ccc(OCC(=O)N2CCCCC2)cc1 [Example 15]", "%", 64],
  ["CC(=NOCc1ccc(C(F)(F)F)cc1)c1ccc(OCC(=O)N2CCOCC2)cc1 [Example 11]", "%", 57]
]}

a = O=C(COc1ccc2c(c1)CCCC2=NOCc1ccc(C(F)(F)F)cc1)NN1CCOCC1 [Example 57]
b = Cc1ccnc(NC(=O)COc2ccc3c(c2)CCCC3=NOCc2ccc(C(F)(F)F)cc2)n1 [Example 60]
Please state the entry with greater inhibition at 100 µM among a and b . To answer, give the label that identifies your chosen option.
b

A = O=C(COc1ccc2c(c1)CCCC2=NOCc1ccc(C(F)(F)F)cc1)Nc1nc2cc(Cl)ccc2o1 [Example 59]
B = CC(C)(C)OC(=O)N1CCC(ONC(=O)COc2ccc(C(Cc3ccccc3)=NOCc3ccc(C(F)(F)F)cc3)cc2)CC1 [Example 8]
Please state the entry with greater inhibition at 100 µM among A and B . To answer, give the label that identifies your chosen option.
A
